These data points were gathered from patent US20080004253A1.

Measured pIC50 by item
# target_under_test: human TRPV1 (Homo sapiens)
# Sequence (Q8NER1 whole entry): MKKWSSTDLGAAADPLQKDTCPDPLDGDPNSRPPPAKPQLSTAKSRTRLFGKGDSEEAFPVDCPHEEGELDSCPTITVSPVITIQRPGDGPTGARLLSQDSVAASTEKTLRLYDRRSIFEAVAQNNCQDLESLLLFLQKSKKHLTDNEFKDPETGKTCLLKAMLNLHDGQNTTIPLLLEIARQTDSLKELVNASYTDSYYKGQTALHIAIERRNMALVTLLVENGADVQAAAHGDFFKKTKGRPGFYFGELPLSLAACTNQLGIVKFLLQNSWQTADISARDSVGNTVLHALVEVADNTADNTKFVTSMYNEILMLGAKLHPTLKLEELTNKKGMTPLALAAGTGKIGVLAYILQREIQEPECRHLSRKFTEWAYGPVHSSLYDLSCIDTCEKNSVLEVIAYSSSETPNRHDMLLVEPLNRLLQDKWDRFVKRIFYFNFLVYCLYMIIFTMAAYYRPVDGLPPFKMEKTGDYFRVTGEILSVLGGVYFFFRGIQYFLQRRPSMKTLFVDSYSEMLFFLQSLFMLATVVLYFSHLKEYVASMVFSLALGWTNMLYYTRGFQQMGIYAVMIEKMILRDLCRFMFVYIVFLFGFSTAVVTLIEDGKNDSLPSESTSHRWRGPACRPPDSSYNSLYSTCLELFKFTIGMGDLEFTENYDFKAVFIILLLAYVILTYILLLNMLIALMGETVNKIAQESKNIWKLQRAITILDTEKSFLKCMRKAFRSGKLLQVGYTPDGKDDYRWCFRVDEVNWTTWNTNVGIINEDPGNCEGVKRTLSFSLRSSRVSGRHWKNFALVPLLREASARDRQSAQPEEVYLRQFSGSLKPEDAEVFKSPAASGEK
# experiment_notes: Functional assay: block of capsaicin-induced Ca2+ influx, human assay (hTRPV1/HEK293, FLIPR)
# assay_context: hTRPV1/HEK293 cells, 150 nM capsaicin challenge, Fluo-3 fluorescence; mean; > value = solubility limit in assay medium
pIC50: −log10 of the molar value.

{"compound_structure_string": "Cc1nc(Nc2ccc(SC(C)C)cc2)c2nc(Nc3c(Cl)cccc3Cl)sc2n1", "target_under_test": "human TRPV1 (Homo sapiens)", "pIC50": 7.70}
{"compound_structure_string": "CSc1nc(Nc2ccc(C(F)(F)F)cc2)c2nc(Nc3c(Cl)cccc3Cl)sc2n1", "target_under_test": "human TRPV1 (Homo sapiens)", "pIC50": 6.65}
{"compound_structure_string": "CS(=O)(=O)c1ccc(Nc2ncnc3sc(Nc4c(Cl)cc(C#N)cc4Cl)nc23)cc1", "target_under_test": "human TRPV1 (Homo sapiens)", "pIC50": 6.94}
{"compound_structure_string": "Clc1cccc(Cl)c1Nc1nc2c(Nc3ccccc3)ncnc2s1", "target_under_test": "human TRPV1 (Homo sapiens)", "pIC50": 6.67}
